- TEST TARGET: PGPH (caspase-like) activity of rabbit muscle 20S proteasomes (Oryctolagus cuniculus)
- Sequence (A0A5F9DQW2 1-212): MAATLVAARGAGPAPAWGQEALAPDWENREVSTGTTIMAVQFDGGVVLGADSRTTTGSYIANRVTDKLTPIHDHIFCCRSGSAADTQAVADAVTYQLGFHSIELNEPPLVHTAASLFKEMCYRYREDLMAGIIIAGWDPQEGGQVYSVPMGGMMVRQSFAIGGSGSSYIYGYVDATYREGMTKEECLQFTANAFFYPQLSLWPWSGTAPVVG
- TEST PROTOCOL: Inhibition of caspase-like (PGPH) activity of 20S proteasome (Z-LLE-AMC)
- TEST CONDITIONS: Table 3; mean EC50; purified rabbit 20S proteasomes
- Method: A commercially available fluorogenic substrate specific for the PGPH activity was used instead of the chymotrypsin substrate supplied in the proteasome assay kit described above. The substrate Z-LLE-AMC was prepared as a 20 mM stock solution in DMSO, stored at −20° C. The source of the proteasomes was the commercially available kit from Calbiochem (Cat. #539158). […] The activity can then be determined by measuring the fluorescence of the released AMC (λex=390 nm and λem=460 nm). […]
Each entry below carries its recorded pEC50.
A value of pEC50 is the negative decimal logarithm of a concentration given in moles per litre.

stdin: For the molecule C[C@@]12OC(=O)[C@]1([C@@H](O)[C@@H]1C=CCCC1)NC(=O)[C@@H]2CCO , give its measured pEC50 value.
stdout: 5.59

stdin: Supply reported pEC50 belonging to this molecule: C[C@@]12OC(=O)[C@]1([C@@H](O)[C@H]1CCC[C@@H]3O[C@H]13)NC(=O)[C@@H]2CCCl
stdout: 5.48

stdin: Provide only the value of recorded pEC50 for C[C@@]12OC(=O)[C@]1([C@@H](O)[C@H]1CCC[C@H]3O[C@@H]13)NC(=O)[C@@H]2CCCl
stdout: 6.31

Now look at this entry.
stdin: Report measured pEC50; entry is C[C@@]12OC(=O)[C@]1([C@@H](O)[C@@H]1C=CCCC1)NC(=O)[C@@H]2CCI
stdout: 6.24

###

- Test system: MES-SA cells
- TEST PROTOCOL: Cell growth inhibition (resazurin, 48 hours), MES-SA
- TEST CONDITIONS: Homo sapiens, MES-SA, read-out: EC50 (nM) MES-SA, Table 16
compounds and their reported log10(EC50)
Please keep in mind that the values are log10 of EC50 expressed in nM.

Use the examples below as a reference point.
stdin: Consider the compound CC[C@H]1C(=O)N[C@@]2([C@@H](O)[C@@H]3C=CCCC3)C(=O)O[C@@]12C [Formula II-17] tested on MES-SA cells; state its log10(EC50).
stdout: 3.97

stdin: Please report log10(EC50) with MES-SA cells for item C[C@@]12OC(=O)[C@]1([C@@H](O)[C@@H]1C=CCCC1)NC(=O)[C@@H]2CCBr [Formula II-18] .
stdout: 1.34

New cases:
stdin: Enter recorded log10(EC50) with MES-SA cells for CC(=O)O[C@H]1C(=O)[C@@]2(C)[C@H]([C@H](OC(=O)c3ccccc3)[C@]3(O)C[C@H](OC(=O)[C@H](O)[C@@H](NC(=O)c4ccccc4)c4ccccc4)C(C)=C1C3(C)C)[C@]1(OC(C)=O)CO[C@@H]1C[C@@H]2O [Paclitaxel, reference compound] here.
stdout: 0.75

stdin: State measured log10(EC50) of the compound C[C@@]12OC(=O)[C@]1([C@@H](O)C1CCCCC1)NC(=O)[C@@H]2CCCl [Formula II-2] with MES-SA cells.
stdout: 2.29

stdin: State recorded log10(EC50) with MES-SA cells, entry C[C@@]12OC(=O)[C@]1([C@@H](O)C1CCCCC1)NC(=O)[C@@H]2CCBr [Formula II-4] , no comment.
stdout: 2.21

###

- System: MES-SA/Dx5 cells
- TEST PROTOCOL: cells
- TEST CONDITIONS: Homo sapiens, MES-SA/Dx5, read-out: EC50 (nM), mean ± SD
RECORDED ENDPOINT: EC50 (nM)
Lab book: enter the figure in nM, no units written.

stdin: Provide measured EC50 value, entry: C[C@@]12OC(=O)[C@]1([C@@H](O)[C@@H]1C=CCCC1)NC(=O)[C@@H]2CCCl [Formula II-16, Salinosporamide A]
stdout: 23

###

- Test system: RPMI 8226 cells
- TEST PROTOCOL: Cell growth inhibition (resazurin, 48 hours), RPMI 8226
- TEST CONDITIONS: Homo sapiens, RPMI-8226, read-out: EC50 (nM), mean ± SD
RECORDED ENDPOINT: EC50 (nM)
Your answer is read as nM, so omit the unit and give the number.

stdin: Please supply the value of reported EC50 for the item C[C@@]12OC(=O)[C@]1([C@@H](O)[C@@H]1C=CCCC1)NC(=O)[C@@H]2CCCl [Formula II-16, Salinosporamide A]
stdout: 10

###

- TEST TARGET: CYP2D6 (Homo sapiens)
- Sequence (P10635 whole entry): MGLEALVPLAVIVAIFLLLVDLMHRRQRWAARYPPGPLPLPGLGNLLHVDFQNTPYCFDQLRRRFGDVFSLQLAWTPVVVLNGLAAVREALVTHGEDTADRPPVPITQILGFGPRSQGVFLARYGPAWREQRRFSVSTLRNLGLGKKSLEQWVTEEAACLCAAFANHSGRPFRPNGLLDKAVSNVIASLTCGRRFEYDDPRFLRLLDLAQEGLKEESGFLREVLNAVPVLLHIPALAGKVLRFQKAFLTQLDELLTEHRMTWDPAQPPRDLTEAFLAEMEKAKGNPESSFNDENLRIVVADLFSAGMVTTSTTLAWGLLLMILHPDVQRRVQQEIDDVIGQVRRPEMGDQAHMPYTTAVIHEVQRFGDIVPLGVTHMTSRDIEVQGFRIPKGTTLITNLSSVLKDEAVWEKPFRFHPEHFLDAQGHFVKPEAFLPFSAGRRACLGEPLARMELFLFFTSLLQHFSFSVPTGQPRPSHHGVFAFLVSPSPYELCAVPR
- TEST PROTOCOL: Preliminary P450 inhibition screen, CYP2D6
- Excerpt: These studies consisted of solubility assessment, LogD^7.4 determination and a preliminary screen to detect cytochrome P450 enzyme inhibition.
RECORDED ENDPOINT: inhibition at 10 µM (%)
Express the result in % but write the number alone.

stdin: Provide one value: measured inhibition at 10 µM of C[C@@]12OC(=O)[C@]1([C@@H](O)[C@@H]1C=CCCC1)NC(=O)[C@@H]2CCCl [Formula II-16, Salinosporamide A]
stdout: 19

###

- TEST TARGET: CYP1A2 (Homo sapiens, UniProt P05177)
- Sequence (P05177 whole entry): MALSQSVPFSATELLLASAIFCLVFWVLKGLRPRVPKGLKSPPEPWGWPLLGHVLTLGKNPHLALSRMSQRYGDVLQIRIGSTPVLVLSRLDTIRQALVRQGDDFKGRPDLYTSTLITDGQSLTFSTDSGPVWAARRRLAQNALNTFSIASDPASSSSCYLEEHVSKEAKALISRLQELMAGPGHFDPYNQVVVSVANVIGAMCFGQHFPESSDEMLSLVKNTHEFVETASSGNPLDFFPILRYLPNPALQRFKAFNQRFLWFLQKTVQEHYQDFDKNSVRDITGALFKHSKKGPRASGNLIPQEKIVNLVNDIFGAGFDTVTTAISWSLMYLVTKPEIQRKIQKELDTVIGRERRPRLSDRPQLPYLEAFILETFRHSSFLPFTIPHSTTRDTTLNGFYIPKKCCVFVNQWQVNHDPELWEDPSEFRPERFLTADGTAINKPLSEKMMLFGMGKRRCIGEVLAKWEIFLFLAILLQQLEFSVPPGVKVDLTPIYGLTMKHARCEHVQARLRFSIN
- TEST PROTOCOL: Preliminary P450 inhibition screen, CYP1A2
RECORDED ENDPOINT: inhibition at 10 µM (%)
# unit: % | format: bare number

stdin: Kindly indicate its recorded inhibition at 10 µM. Item: C[C@@]12OC(=O)[C@]1([C@@H](O)[C@@H]1C=CCCC1)NC(=O)[C@@H]2CCCl [Formula II-16, Salinosporamide A]
stdout: 3

###

- Test system: MES-SA/Dx5 cells
- TEST PROTOCOL: cells
- TEST CONDITIONS: read-out: EC50 (nM) MES-SA/Dx5; Table 16
Parameter: EC50. Scope: all listed entries.

stdin: System MES-SA/Dx5 cells. Read-out EC50. Item C[C@@]12OC(=O)[C@]1([C@@H](O)C1CCCCC1)NC(=O)[C@@H]2CCCl [Formula II-2] . Report value.
stdout: 138 nM

stdin: Report measured EC50 on MES-SA/Dx5 cells; entry: C[C@@]12OC(=O)[C@]1([C@@H](O)C1CCCCC1)NC(=O)[C@@H]2CCBr [Formula II-4]
stdout: 93 nM

###

- TEST TARGET: trypsin-like activity of purified rabbit 20S proteasomes (Oryctolagus cuniculus, UniProt G1SWK8)
- Sequence (G1SWK8 1-271): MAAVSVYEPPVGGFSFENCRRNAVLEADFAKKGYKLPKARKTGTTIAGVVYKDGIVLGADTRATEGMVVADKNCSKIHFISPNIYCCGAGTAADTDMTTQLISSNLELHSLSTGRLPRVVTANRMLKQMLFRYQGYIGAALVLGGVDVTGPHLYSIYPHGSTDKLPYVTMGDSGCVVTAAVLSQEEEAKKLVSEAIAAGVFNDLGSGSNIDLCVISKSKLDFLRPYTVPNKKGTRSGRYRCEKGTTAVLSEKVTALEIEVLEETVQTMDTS
- TEST PROTOCOL: biochemical
API: label(entry) gives Satisfied if the entry's EC50 is strictly smaller than 0.3 µM; on equality or larger values it gives Not satisfied.

stdin: Does the reported EC50 of the following compound sit strictly below 0.3 µM? C[C@@]12OC(=O)[C@]1([C@@H](O)[C@@H]1C=CCCC1)NC(=O)[C@@H]2CCO [Formula II-21]
stdout: Not satisfied

stdin: A record lists C[C@@]12OC(=O)[C@]1([C@@H](O)[C@@H]1C=CCCC1)NC(=O)[C@@H]2CCI [Formula II-19] . Is its EC50 below 0.3 µM?
stdout: Satisfied

stdin: Hello, is EC50 of the following compound strictly smaller than 0.3 µM? CC[C@@]12OC(=O)[C@]1([C@@H](O)[C@@H]1C=CCCC1)NC(=O)[C@@H]2CCCl [Formula II-24C]
stdout: Not satisfied

stdin: Threshold test, EC50 < 0.3 µM: C[C@@]12OC(=O)[C@]1([C@@H](O)C1CCCCC1)NC(=O)[C@@H]2CCBr [Formula II-4]
stdout: Satisfied

stdin: Strictly below 0.3 µM in EC50? C[C@@]12OC(=O)[C@]1([C@@H](O)C1CCCCC1)NC(=O)[C@@H]2CCCl [Formula II-2]
stdout: Satisfied

Further cases:
stdin: Please determine if C[C@@]12OC(=O)[C@]1([C@@H](O)[C@H]1CCC[C@H]3O[C@@H]13)NC(=O)[C@@H]2CCCl [Formula II-5A] is below 0.3 µM in terms of EC50.
stdout: Satisfied

stdin: Consider the compound CC[C@H]1C(=O)N[C@@]2([C@@H](O)[C@@H]3C=CCCC3)C(=O)O[C@@]12C [Formula II-17] . Is its EC50 strictly less than 0.3 µM?
stdout: Not satisfied

stdin: Strictly below 0.3 µM: is that where EC50 of CC12OC(=O)C1(C(=O)C1C=CCCC1)NC(=O)C2CCCl (stereo not shown) [Formula II-13C] sits?
stdout: Not satisfied
